tested on: Human betaherpesvirus 5; test: Antiviral activity against HCMV Davis in HEL cells assessed as reduction of virus plaque formation after 5 days; format: functional, organism-based; conditions: Human betaherpesvirus 5, Davis, 120 h
Observed Property: log10 of EC50 (log10 of the value in µg/mL)
Hello, just confirming the data are log10 of EC50 with units of µg/mL.

Per the records, this molecule ( "Cc1cc(-c2cccc(C#N)c2)cn2c(CSCCc3ccccc3)cnc12" ) has log10 of EC50 equal to 0.40

Per the records, this molecule ( "Nc1ccn(C[C@@H](CO)OCP(=O)(O)O)c(=O)n1.O.O" ) has log10 of EC50 equal to -0.92

Per the records, this molecule ( "Cc1cc(-c2cccs2)cn2c(CSCCc3ccccc3)cnc12" ) has log10 of EC50 equal to 0.34

Per the records, this molecule ( "COc1cccc(-c2cc(C)cn3c(CSCCc4ccccc4)cnc23)c1" ) has log10 of EC50 equal to 1.04

Per the records, this molecule ( "Cc1cc(-c2cccc(O)c2)cn2c(CSCCc3ccccc3)cnc12" ) has log10 of EC50 equal to 0.34

Per the records, this molecule ( "Cc1cc(-c2ccccc2)cn2c(CSCCc3ccccc3)cnc12" ) has log10 of EC50 equal to 0.34

Per the records, this molecule ( "Cc1cc(-c2ccsc2)cn2c(CSCCc3ccccc3)cnc12" ) has log10 of EC50 equal to 0.26

Per the records, this molecule ( "Cc1cc(-c2ccc(O)cc2)c2ncc(CSCCc3ccccc3)n2c1" ) has log10 of EC50 equal to 0.34
